Test system: MFM-223
ASSAY PROCEDURE: normalised response (% of control), CellTiter-Glo; higher = more viable cells (100 = DMSO, 0 = benzethonium chloride kill control)
TEST CONTEXT: incubation time: 72 h
MEASUREMENT TYPE: normalised response (%)
One number for each entry, in %.

{"COMPOUND": "c1cc(CN2CCCNCCNCCCNCC2)ccc1CN1CCCNCCNCCCNCC1 [Plerixafor] (1000 nM)", "MEASUREMENT TARGET": "MFM-223", "UNIT NAME": "%", "normalised response": 87.3}
{"COMPOUND": "COc1nc(N)nc2c1ncn2[C@@H]1O[C@H](CO)[C@@H](O)[C@@H]1O [Nelarabine] (1 nM)", "MEASUREMENT TARGET": "MFM-223", "UNIT NAME": "%", "normalised response": 88.2}
{"COMPOUND": "C[C@]12C=CC(=O)C=C1CC[C@@H]1[C@@H]2[C@@H](O)C[C@@]2(C)[C@H]1CC[C@]2(O)C(=O)CO [Prednisolone] (10 nM)", "MEASUREMENT TARGET": "MFM-223", "UNIT NAME": "%", "normalised response": 104}
{"COMPOUND": "CC/C(=C(\\c1ccc(O)cc1)c1ccc(OCCN(C)C)cc1)c1ccccc1 [4-hydroxytamoxifen] (1 nM)", "MEASUREMENT TARGET": "MFM-223", "UNIT NAME": "%", "normalised response": 101}
{"COMPOUND": "O=S(=O)(c1cccc2cnccc12)N1CCCNCC1 [Fasudil] (50 nM)", "MEASUREMENT TARGET": "MFM-223", "UNIT NAME": "%", "normalised response": 99.3}

Could you tell me normalised response for each of these compounds? They are listed below.
1. CC[C@@]1(O)C(=O)OCc2c1cc1n(c2=O)Cc2cc3c(CN(C)C)c(O)ccc3nc2-1 [Topotecan] (1000 nM)
2. CCCCC/C=C/C=C1/C(=O)C=C[C@@H]1C/C=C\CCCC(=O)O [15D-PGJ2] (0.8 nM)
3. Cc1nc(Nc2ncc(C(=O)Nc3c(C)cccc3Cl)s2)cc(N2CCN(CCO)CC2)n1 [Dasatinib] (0.1 nM)

1. 91.4
2. 102
3. 99.9
